- target.of.assay: ATM (Homo sapiens (Human))
- Sequence (Q13315 whole entry): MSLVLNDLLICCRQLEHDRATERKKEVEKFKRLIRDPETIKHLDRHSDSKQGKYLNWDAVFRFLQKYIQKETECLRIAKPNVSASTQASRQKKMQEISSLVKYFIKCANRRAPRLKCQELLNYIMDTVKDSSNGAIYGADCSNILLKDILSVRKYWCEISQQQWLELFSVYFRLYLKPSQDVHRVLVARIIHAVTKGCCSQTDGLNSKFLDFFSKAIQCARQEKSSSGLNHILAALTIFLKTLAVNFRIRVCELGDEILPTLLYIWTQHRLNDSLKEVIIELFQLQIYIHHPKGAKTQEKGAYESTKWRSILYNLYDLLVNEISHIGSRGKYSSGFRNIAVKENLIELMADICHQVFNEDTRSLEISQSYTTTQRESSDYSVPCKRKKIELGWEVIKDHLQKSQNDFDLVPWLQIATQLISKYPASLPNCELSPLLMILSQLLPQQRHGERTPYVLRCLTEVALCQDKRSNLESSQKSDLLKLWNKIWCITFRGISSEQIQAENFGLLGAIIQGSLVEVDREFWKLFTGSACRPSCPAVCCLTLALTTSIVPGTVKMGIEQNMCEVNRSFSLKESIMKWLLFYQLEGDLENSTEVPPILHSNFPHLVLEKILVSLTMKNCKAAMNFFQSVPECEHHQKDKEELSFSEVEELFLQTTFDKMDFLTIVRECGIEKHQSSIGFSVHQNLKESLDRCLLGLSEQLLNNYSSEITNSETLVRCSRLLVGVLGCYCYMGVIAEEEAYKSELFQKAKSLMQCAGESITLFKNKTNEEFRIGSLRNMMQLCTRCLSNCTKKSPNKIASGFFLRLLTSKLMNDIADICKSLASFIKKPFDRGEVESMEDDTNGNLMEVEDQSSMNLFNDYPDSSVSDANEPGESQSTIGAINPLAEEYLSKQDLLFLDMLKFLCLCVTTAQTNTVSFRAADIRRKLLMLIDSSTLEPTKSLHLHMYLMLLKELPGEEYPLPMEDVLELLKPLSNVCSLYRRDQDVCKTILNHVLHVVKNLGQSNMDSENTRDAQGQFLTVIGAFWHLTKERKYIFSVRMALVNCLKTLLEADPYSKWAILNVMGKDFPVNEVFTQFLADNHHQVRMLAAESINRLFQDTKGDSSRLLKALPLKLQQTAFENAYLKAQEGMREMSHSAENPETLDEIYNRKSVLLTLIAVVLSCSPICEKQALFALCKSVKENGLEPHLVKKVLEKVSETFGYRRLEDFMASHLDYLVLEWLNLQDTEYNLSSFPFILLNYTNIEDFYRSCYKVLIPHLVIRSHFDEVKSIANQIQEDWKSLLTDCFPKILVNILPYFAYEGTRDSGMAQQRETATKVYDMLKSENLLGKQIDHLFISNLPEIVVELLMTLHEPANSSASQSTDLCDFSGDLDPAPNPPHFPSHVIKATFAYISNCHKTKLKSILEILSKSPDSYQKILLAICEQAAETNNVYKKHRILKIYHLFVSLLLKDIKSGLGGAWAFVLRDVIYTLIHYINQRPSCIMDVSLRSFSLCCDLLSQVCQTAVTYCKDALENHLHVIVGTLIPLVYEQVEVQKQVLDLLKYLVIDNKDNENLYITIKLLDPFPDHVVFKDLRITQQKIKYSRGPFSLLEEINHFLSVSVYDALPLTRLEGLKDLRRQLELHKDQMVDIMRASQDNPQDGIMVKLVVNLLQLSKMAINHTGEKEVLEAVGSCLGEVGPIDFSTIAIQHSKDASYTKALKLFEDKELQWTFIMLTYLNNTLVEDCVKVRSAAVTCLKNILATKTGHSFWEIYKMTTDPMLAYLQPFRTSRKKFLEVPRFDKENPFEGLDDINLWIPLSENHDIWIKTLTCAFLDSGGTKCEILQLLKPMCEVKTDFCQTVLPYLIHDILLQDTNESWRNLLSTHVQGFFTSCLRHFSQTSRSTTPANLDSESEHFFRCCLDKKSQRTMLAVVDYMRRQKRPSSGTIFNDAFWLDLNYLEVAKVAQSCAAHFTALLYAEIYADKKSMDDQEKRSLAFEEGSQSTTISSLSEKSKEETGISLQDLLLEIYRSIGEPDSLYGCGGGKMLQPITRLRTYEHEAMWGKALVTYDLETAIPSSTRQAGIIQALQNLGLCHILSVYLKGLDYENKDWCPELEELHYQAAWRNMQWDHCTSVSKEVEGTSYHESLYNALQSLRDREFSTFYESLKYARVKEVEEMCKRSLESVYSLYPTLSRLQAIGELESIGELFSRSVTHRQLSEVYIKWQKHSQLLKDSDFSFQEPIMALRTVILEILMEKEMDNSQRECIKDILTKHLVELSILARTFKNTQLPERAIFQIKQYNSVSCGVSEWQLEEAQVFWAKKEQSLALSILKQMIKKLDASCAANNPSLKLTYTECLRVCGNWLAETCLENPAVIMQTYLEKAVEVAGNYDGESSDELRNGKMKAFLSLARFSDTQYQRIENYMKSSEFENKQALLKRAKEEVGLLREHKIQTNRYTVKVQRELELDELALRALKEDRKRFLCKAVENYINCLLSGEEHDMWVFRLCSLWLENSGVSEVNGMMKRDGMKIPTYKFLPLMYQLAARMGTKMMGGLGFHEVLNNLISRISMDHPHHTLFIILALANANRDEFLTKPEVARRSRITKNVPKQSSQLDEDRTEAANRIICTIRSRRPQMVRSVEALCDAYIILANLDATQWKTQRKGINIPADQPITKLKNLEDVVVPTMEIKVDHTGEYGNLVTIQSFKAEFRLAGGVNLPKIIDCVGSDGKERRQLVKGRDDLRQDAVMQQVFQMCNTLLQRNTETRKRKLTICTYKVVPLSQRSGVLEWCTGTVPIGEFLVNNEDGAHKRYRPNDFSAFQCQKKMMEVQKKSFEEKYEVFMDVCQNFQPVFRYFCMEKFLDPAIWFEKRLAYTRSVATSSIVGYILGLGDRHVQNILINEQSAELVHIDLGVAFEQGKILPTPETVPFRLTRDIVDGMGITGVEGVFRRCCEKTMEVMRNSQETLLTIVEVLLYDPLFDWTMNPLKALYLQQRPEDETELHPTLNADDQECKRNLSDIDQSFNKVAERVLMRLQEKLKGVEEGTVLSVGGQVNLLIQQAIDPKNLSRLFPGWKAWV
- test.details: ATM in Cell Western Assay (pKAP1 in etoposide-treated MCF-7 cells)
- Format: cell-based
- assay.conditions: pKAP1 in etoposide-treated MCF-7 cells
- Description: Assay of Compounds ATM and DNA-PK Inhibition ATM in Cell Western Assay: Next day, add corresponding concentration of compounds using pin tool (Echo 550), the final top concentration is 1 μM, 3-fold series dilution, total 10 doses. Then add etoposide (Sigma, #E1383) to a final concentration of 100 μM. Incubate at 37° C. for 1 hr. Fix cells by adding 25 μL of fixing solution (8% paraformaldehyde) for 20 minutes at ambient temperature. […]
Structures can show the parent of a compound that is named as a salt.
Below, each entry is listed with its recorded IC50.

| compound | readout | result |
| --- | --- | --- |
| CC(C)NCCOc1ncc(-c2cc3c(cc2F)ncc2c3[C@]3(C[C@H](c4cccc(F)c4)C3)C(=O)N2C)cc1NS(C)(=O)=O | IC50 | 1 to 100 nM |
| CC(C)NCCOc1ncc(-c2cc3c4c(cnc3cc2F)N(C)C(=O)C42CN(C(C)C)C2)cc1NS(=O)(=O)C1CC1 | IC50 | 1 to 100 nM |
| CN1C(=O)C2(CCC2)c2c1cnc1cc(F)c(-c3cnc(OCCNC4CCC4)c(NS(C)(=O)=O)c3)cc21 | IC50 | > 100 nM |

## Task Given CN(C)CCCN(C)c1ncc(-c2ccc3ncc4c(c3c2)C2(CCC2)C(=O)N4C)cc1NS(C)(=O)=O [Example 362, hydrochloride] , respond with its IC50.
## Result 1 to 100 nM

## Task Quickly give me recorded IC50 for Cc1ccc(N2CC3(C2)C(=O)N(C)c2cnc4cc(F)c(-c5cnc(OCCNC(C)C)c(NS(C)(=O)=O)c5)cc4c23)cc1 [Example 526, hydrochloride]
## Result 1 to 100 nM

## Task Given CC(C)NCCOc1ncc(-c2ccc3ncc4c(c3n2)C2(CCC2)C(=O)N4C)cc1NS(C)(=O)=O , respond with its IC50.
## Result 1 to 100 nM

## Task Input CN1C(=O)C2(CCC2)c2c1cnc1ccc(-c3cnc(N4CCC(N5CCOCC5)CC4)c(NS(=O)(=O)N(C)C)c3)cc21 , output reported IC50.
## Result 1 to 100 nM

## Task Answer with the recorded IC50 for the compound listed here: COC[C@H]1C[C@@]2(C1)C(=O)N(C)c1cnc3cc(F)c(-c4cnc(OCCNC(C)C)c(NS(C)(=O)=O)c4)cc3c12
## Result 1 to 100 nM

## Task Retrieve IC50 measured for CN1C(=O)C2(CCC2)c2c1cnc1ccc(-c3cnc(N4CC5(CNC5)C4)c(NS(C)(=O)=O)c3)cc21 [Example 346, formate] and print it.
## Result > 100 nM
